B1: HDV Ribozyme (parent)
chain: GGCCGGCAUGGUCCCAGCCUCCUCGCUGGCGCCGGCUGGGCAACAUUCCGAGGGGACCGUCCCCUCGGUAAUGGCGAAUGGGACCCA

Variants of: B1
Assay: self-cleavage, relative activity (ratio to wild type); higher = more cleavage; co-transcriptional
reported_property: self-cleavage
In your answer, state the number alone without any accompanying words.

In the examples that follow, each entry is paired with its recorded self-cleavage.
GGCCGGCAUGGACCCAGCCUCCUCGCUGGCGCCGGCUGGGCAACAUUCCGAGGGGACCGUCCCCUCGGUAAGGGCGAAUGGGACCCA [U12A U72G] = 0.185
GGCCGGCAUGGGCCCAGCCUCCUCGCUGGCGCCGGCUGGGCAACAUUCCGAGGUGACCGUCCCCUCGGUAAUGGCGAAUGGGACCCA [U12G G54U] = 0.793
GCCCGGCAUGGUCCCAGCAUCCUCGCUGGCGCCGGCUGGGCAACAUUCCGAGGGGACCGUCCCCUCGGUAAUGGCGAAUGGGACCCA [G2C C19A] = 0.106
GGCCGGCAUGGUCCCAGCCUCCUCGCUGGCGCCGGCUGGCCAACAUUCCGAGGGGACCGUCCCCUCGGUAAUUGCGAAUGGGACCCA [G40C G73U] = 0.233
GGCCGGCAUGGUCCCAGCCUCCUCGCUGGCGCCGGCUGGGCAACAUUCCGAGGGGACCGUCCCCGCGGUACUGGCGAAUGGGACCCA [U65G A71C] = 0.755
GGCCGGCAUGGUCCCAGCCUCCUCGCUGGCGCCGGCUGGGCAACAUUCCGAGGGGACCGUCCCCUCGGUAAUGGCGAAUGGGACUUA [C85U C86U] = 0.895

INPUT: Can you share its self-cleavage? I mean this variant: GGCCGGCAUGGUCCCAGCCUCCUCGCUGGCGCUGGCUGGGCAACAUUCCGACGGGACCGUCCCCUCGGUAAUGGCGAAUGGGACCCA [C33U G52C]
OUTPUT: 0.596

INPUT: If you can, please state the reported self-cleavage value of GGCCGGCAUGGUCCCAGCCUCCUCGCUGGCGCCGGCUGGGCACCAUUCCGAGGGGACCGUCCCCUCGGUAAUGGCGAAUGGGACCCC [A43C A87C] .
OUTPUT: 0.407

INPUT: Quick check: self-cleavage of GGCCGGCAUGGUCCCAGCCUCCUCGCUGGCGCCGGCUGGCCAACAUUCCGAGGGGACAGUCCCCUCGGUAAUGGCGAAUGGGACCCA [G40C C58A] ?
OUTPUT: 0.151

INPUT: Give the measured self-cleavage of GGCCGGCAUGGUCCCAGCCUCCUCGCUGGCGCCGGCUCGGCAACGUUCCGAGGGGACCGUCCCCUCGGUAAUGGCGAAUGGGACCCA [G38C A45G] .
OUTPUT: 0.227

INPUT: Dear colleague, I am looking for the recorded self-cleavage of the following variant: GGCCGGCAUGGUCCAAGCCUCCUCGCUGGCGCCGGCUGGGCAACAUUCCGAGGGGACCGUCCCCUCUGUAAUGGCGAAUGGGACCCA [C15A G67U]
OUTPUT: 0.633

INPUT: For the variant GGCCGGCAUGGUCCCAGCCUCCUCGCUGGCGCCGGCUGGGCAACAUUCCGAGGGGACCGUCCCCUCGGUAAUGGCGAAUCUGACCCA [G80C G81U] , what self-cleavage is on record?
OUTPUT: 0.231

INPUT: Recorded self-cleavage of GGCCGGCAUGGUGCCAGCCUCCUCGCUGGCGCCGGCUGGGCAACAUUCCGAGUGGACCGUCCCCUCGGUAAUGGCGAAUGGGACCCA [C13G G53U] , please.
OUTPUT: 0.102

INPUT: Fill in the blank: the reported self-cleavage of GGCCGGCAUGGUCCCAGCCUCCUAGCUGGCGCCGGCUGGGCAACAUUCCGAGGGGACCGUCCCUUCGGUAAUGGCGAAUGGGACCCA [C24A C64U] is ____.
OUTPUT: 0.866

INPUT: # query: self-cleavage of entry GGCCGGCAUGGUCCCAGCCUCCUCGCUGGCGGCGGCUGGGCAACAUUCCGAGGGGACCGUCCCCUCUGUAAUGGCGAAUGGGACCCA [C32G G67U]
OUTPUT: 0.0831

INPUT: Can you look up the measured self-cleavage of GGCCGGCAUGGUCCCAGCCUCCUCGCUGGCGCCGGCUGGGCAACAUUACCAGGGGACCGUCCCCUCGGUAAUGGCGAAUGGGACCCA [C48A G50C] for me?
OUTPUT: 1.11

INPUT: Returns the measured self-cleavage for the input variant. Input: GGCCGGCAUGGUCCCCGCCUCCUCGCUGGCGCCGGCUGCGCAACAUUCCGAGGGGACCGUCCCCUCGGUAAUGGCGAAUGGGACCCA [A16C G39C]
OUTPUT: 0.0831

INPUT: Dear colleague, I am looking for the recorded self-cleavage of the following variant: GGCCGGCAUGGUCCCAGCCUCCUCGCUGGCGCCGGCUGGGCAACAUACCGAGGGAACCGUCCCCUCGGUAAUGGCGAAUGGGACCCA [U47A G55A]
OUTPUT: 0.927

INPUT: Reported self-cleavage, variant GGCCGGCAUGGUCCCAGCCUCCUCGCUGGCGCCGGCUGGGCAACAUUCCGAGGGGACCGUCACCUCGGUAAUGGCGAAUAGGACCCA [C62A G80A] : ____
OUTPUT: 0.282

INPUT: Entry GGCCGGCAUGGUCCCAGCCACCUCGCUGGCGCCGGCUGGGCAACAUUCCGAGGGGACCGUCCCCUCGGUAAUGACGAAUGGGACCCA [U20A G74A] has what self-cleavage?
OUTPUT: 0

INPUT: // query self-cleavage value for entry GGCCUGCAUGGUCCCAGCCUCCUCGCUGGCGCCGGCUGGGCAACAUUCCGAGGGGACCGUCCCCUCGGUAAUGGCGAAUGGGAUCCA [G5U C84U]
OUTPUT: 0.219

INPUT: Which self-cleavage is reported for this variant? GGCCGGCAUGGUCCCAGCCACCUCGCUGGCGCCGGCUGGGCAACAUUCCGAGGGGACCGUCCCCUAGGUAAUGGCGAAUGGGACCCA [U20A C66A]
OUTPUT: 0

INPUT: Recorded self-cleavage for GGCCGGCAUGGUCCCAGCCUCCUCGCUGGCGCCGGCUGGGCAACAUUCCGAGGGGACCGUCCCCUCGGUAAUGCCGAAUGGGACUCA [G74C C85U] , please?
OUTPUT: 0.128

INPUT: # lookup: self-cleavage of GGCCGGCAUGGUGCCAGCCUCCUCGCUGGCGCCGGCUGGGCAACAUUCCGAGGGGACCGUCCCCUCGGUAAUGGCGAAUGGGACCCA [C13G]
OUTPUT: 0.078
